The measurements presented in this section are drawn from the supplement of paper PMC10126150.

Please respond with reported switch fluorescence ratio for every item in the list.
- System: ATP;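 further: ATP exposure 15 min at 22 °C before imaging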
- assay_text: switch fluorescence ratio, 500 uM ATP over buffer (Cy3 cluster intensity, sum of 5 cycles each) (fold (ratio)); higher = stronger signal-on switching upon ATP binding; sequences stand for … in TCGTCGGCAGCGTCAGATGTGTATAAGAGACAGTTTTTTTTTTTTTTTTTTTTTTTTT…TC
- assay_context: aptamer strand: ATP DNA aptamer (quencher-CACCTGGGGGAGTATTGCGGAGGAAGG + anchor), 100 nM annealed; ATP concentration: 500 uM
Reply with the value as a number alone.

Could you share what switch fluorescence ratio was measured for TGTTTTTATA , tested on ATP?;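 further: ATP exposure 15 min at 22 °C before imaging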
1

Thanks! And TGTTTCTCGT ?
1.01

Next up: GCTATTGGTA
1.01

Item: TTGATAGCCT
1.06

And ATACGGGGAT ?
1.01

Proceed to ACATACGCAA
4.63

Could you do the same for TGAGGGCATT , please?
1

Next: ATAAAATTTT
1

Can you handle GGGCGTCGTC next?
0.993

Next up: CATTAACGGG
1.02

* * *

- Test system: ATP;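 further: ATP exposure 15 min at 22 °C before imaging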
- assay_text: switch fluorescence ratio, 500 uM ATP over buffer (Cy3 cluster intensity, sum of 5 cycles each) (fold (ratio)); higher = stronger signal-on switching upon ATP binding; sequences stand for … in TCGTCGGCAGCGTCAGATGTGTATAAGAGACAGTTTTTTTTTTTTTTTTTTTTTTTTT…TC
- assay_context: aptamer strand: ATP DNA aptamer (quencher-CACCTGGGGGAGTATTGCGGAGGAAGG + anchor), 100 nM annealed; ATP concentration: 500 uM
Give switch fluorescence ratio for every item shown.
Answer field: number only, no words.

Entry TAAGTCCCGG , system ATP: what switch fluorescence ratio was measured?;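 further: ATP exposure 15 min at 22 °C before imaging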
0.984

What do you have for GCAAGGTAGC ?
1.07

Same thing, different sequence: AAAGGTCTGA
0.98

What about this sequence? GACTTGGTGC
1.06

Next: TTTGAGGTAA
1.01

What do we get for ACGGGGTCTA ?
0.993

Do the same for ACTTTGGTTA please
1.04

Likewise for CGAGCGACGT ?
0.986

Another sequence to check: GGTGGAGTCG
1.01

Do the same for TTCCTTTTAA please
1.04

And GTTGGGGGCC ?
0.997

How about this sequence: TGATAGTGAT
0.988

And the next one, AAGGGAGCAC ?
1.02

Record: TATATTACAG
1.05

Continue with GGATCGCGAA
0.978

What about CTTGCCGCGC ?
1.13

What do we get for TTCCGGGCTA ?
1.47

# iterate: ATAGTTACGC
1.03

Please do the same for GGCTTATTGG as well.
0.969

Please give the result for CGAGGTGTAG too.
0.98

// same read-out, input: ATGCATGTGC
0.983

Input TGGGTAGTGT
1

Then what about the sequence AAGCCGTAGG ?
0.991

Do the same for CGTGTTTTAG please
1

Here is the next sequence: TCGCGGTCGG
0.997

Again, but for GGGGACGGGA
0.989

Would you mind doing GGCTGTGGCG as well?
0.976

Do the same for ATCTAGTTTG please
1.01

Next record, please: GCCCGATCAC
1.15

Moving on to TGTTGGCTTT
1.06

Next up: CGCTCCCATT
1.46

Next record, please: ATGGGATGCG
0.981

Also, GCATAGCAAT please.
1.05

How about CATATTCCTA ?
0.999

Likewise for TTGAAGAAAG ?
0.976

Also ATTAATCGGC ?
0.973

Can you check GAGAGCTATA next?
1.07

What do you have for TTAAAGTGCC ?
1.01

Likewise for CCGGTTTGTC ?
1.02

Now give it for TCACAGTTAG too.
0.998

How about GGATTAGTCA ?
0.997

Note, next up: AATATTTATT
1.02

TTCCCAGCAG , same question.
1.68

Also GTTTACGTTC , if possible.
1.02

And what about the sequence ATGGAAAGGG ?
0.989

What about GCCTCATAGG ?
0.994

Now give it for CTTTTAGCTG too.
1

Follow-up entry: AGCTCGGTCG
0.963

Same thing, different sequence: GGGACCGGTT
0.99

Ok, now GTGTTCGGCG
1.07

Another: GCGTGGGGCG
0.996

Okay, and AACCAGAAAT ?
0.992

Cool, now CTGGTAACCG
1

Same question, GGGTACTTAG this time
1.05

# iterate: CCTTTGCTGT
1.07

Try GGTAGATGGT next.
1.01

Also, TGCATGGATC please.
1.02

Entry to check: TCAATGGTTT
1.12

Would you mind doing ACGAACGTTG as well?
1.26

// query: AGCTGGGCTC
1.07

Request: GCGCTGCATT
1.06

Next up: ATTGTGCATT
0.979

What do we get for TTGCACCCGT ?
1.04

# iterate: AAAATTGGGG
1.02

How about TTACGGAGGG ?
1.02

Also AAGATCTTAT ?
1.01

Here is the next sequence: TTAATGCTTT
1.13

Ok, now CCGGGAGCCG
1.02

What about this sequence? TGATTGGGGG
0.989

Check TATGGTGAGC too.
1.01

Same question for TCTGAAGGAG please.
1.01

Try CCCCAAGACG next.
0.997

For AACGCCTTCG then?
1.18

Then what about the sequence GCCTTGAAGT ?
1

Also, TATTTTCTCA please.
1.05

Lookup TATTTGTATG
0.992

Record: TGGGTGGTGT
1.02

Then what about the sequence GTTTCCTATT ?
0.959

Same question for CAGGCCTCTT please.
0.994

Lookup CGGTTGTCGG
0.997

Next entry: AATCCGCTCT
1.2

Consider next the sequence CCAGCTTTTA in the same way.
1.09

Try this sequence too: TAGATTTT
0.995

Then this sequence: TAATGACTTG
0.953

Also need GTGTCGGGGA , thanks.
1.01

Likewise for GGTACAGAGC ?
1
